# STUDY SYSTEM: Yap3 (UniProt P38749)
# Sequence: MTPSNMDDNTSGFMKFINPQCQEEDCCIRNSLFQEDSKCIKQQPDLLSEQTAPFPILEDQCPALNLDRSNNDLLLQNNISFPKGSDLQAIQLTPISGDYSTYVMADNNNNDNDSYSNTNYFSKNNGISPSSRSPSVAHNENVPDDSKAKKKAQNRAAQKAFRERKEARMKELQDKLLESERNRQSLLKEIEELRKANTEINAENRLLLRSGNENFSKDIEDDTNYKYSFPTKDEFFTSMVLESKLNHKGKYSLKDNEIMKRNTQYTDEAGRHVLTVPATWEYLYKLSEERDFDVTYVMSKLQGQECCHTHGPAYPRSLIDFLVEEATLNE
# EXPERIMENT SUMMARY: PBM E-score (8-mer binding enrichment) (E-score (-0.5 to 0.5)); higher = stronger / more preferred TF binding
# CONDITION INFO: protein concentration: 100 nM; construct: GST-full length
Whole data set: some 33,000 sequences, median “E-score (-0.5 to 0.5)” near -0.0034, cut for the highest 2% near 0.25. For the sample, the highest values were picked, then their nearest neighbours and some sequences at random.
PROPERTY: PBM E-score
One number for each entry.

ATACATTA    0.266

For each listed entry, give its PBM E-score.
1. CTTATCTC
2. GAAGAACA
3. CCAAGACG
4. ACAACCAG
5. ATTACAAT

0.0941
0.225
-0.148
0.0808
0.125

For each listed entry, give its PBM E-score.
1. AAGAACAA
2. ATTATCGC
3. GTACATTA
4. TAAGAACA
5. CGTTCATA

0.267
0.304
0.0635
0.326
-0.0126

For each listed entry, give its PBM E-score.
1. GCGTGGCC
2. CCAGCACG
3. ACCTCTCT
4. AACTTTTC
5. GAGAACAC
6. TATTCACA

[-0.3, -0.128, -0.175, 0.0947, -0.00708, 0.27]

###

Task for the reader: assign each of the following sequences its reported PBM E-score.
# STUDY SYSTEM: Yap3 (UniProt P38749)
# Sequence: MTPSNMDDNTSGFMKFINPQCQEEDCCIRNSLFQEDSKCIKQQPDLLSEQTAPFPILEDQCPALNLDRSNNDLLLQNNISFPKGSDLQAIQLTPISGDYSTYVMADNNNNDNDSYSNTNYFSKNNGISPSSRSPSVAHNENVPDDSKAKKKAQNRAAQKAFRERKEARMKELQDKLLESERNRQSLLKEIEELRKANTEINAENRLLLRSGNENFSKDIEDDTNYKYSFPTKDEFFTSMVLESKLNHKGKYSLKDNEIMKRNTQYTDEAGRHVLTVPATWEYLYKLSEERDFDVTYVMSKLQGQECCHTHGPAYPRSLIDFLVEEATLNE
# EXPERIMENT SUMMARY: PBM E-score (8-mer binding enrichment) (E-score (-0.5 to 0.5)); higher = stronger / more preferred TF binding
# CONDITION INFO: protein concentration: 100 nM; construct: GST-full length
The full ranking holds about 33,000 sequences; the median of “E-score (-0.5 to 0.5)” is about -0.0034, and the highest 2% start at about 0.25. Shown is part of a subset that was picked to be rich in the highest values.

AATTATGT    0.164
GCATAAGA    0.0573
AGATATAA    0.211

For each listed entry, give its PBM E-score.
1. TAAAGTGA
2. AGAAAGAA
3. GGAAAGCA
4. GTTACGTA
5. ATTTGTTA

0.263
0.0357
0.018
0.182
0.166

###

# STUDY SYSTEM: Yap3 (UniProt P38749)
# Sequence: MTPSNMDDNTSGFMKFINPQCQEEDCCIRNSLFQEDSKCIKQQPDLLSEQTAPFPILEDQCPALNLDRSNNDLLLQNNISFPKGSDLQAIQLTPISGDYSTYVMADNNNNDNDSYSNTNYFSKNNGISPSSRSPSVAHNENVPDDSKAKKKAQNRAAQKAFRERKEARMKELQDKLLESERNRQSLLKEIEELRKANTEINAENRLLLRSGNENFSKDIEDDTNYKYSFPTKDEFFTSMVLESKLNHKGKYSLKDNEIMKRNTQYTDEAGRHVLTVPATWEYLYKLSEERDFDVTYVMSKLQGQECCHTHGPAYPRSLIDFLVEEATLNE
# EXPERIMENT SUMMARY: PBM E-score (8-mer binding enrichment) (E-score (-0.5 to 0.5)); higher = stronger / more preferred TF binding
# CONDITION INFO: protein concentration: 100 nM; construct: GST-full length
In all, about 33,000 sequences were measured (“E-score (-0.5 to 0.5)”: median about -0.0034, highest 2% from about 0.25 on). The sample as a whole holds a higher share of the highest values than the screen did.
Task for the reader: assign each of the following sequences its reported PBM E-score.

GTTGTTTA    0.273

For each listed entry, give its PBM E-score.
1. AAAAGTTA
2. AAAATAGT
3. ATTGTTTA
4. ATAGGTTA

1: 0.195; 2: 0.12; 3: 0.0804; 4: 0.0929

###

# STUDY SYSTEM: Yap3 (UniProt P38749)
# Sequence: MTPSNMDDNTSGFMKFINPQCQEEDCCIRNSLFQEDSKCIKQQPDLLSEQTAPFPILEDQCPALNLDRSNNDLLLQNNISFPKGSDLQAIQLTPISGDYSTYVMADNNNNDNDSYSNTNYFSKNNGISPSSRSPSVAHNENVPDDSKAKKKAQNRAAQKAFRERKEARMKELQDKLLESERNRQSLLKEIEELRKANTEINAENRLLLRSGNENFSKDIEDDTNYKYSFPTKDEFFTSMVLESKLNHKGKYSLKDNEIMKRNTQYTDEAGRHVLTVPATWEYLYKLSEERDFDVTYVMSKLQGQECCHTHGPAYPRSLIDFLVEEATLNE
# EXPERIMENT SUMMARY: PBM E-score (8-mer binding enrichment) (E-score (-0.5 to 0.5)); higher = stronger / more preferred TF binding
# CONDITION INFO: protein concentration: 100 nM; construct: GST-full length
Over roughly 33,000 sequences, “E-score (-0.5 to 0.5)” has its median near -0.0034; the highest 2% begin near 0.25. This excerpt belongs to a sample that is enriched for the highest values.
PROPERTY: PBM E-score
Numbers only.

ACCATATA    0.285

For each listed entry, give its PBM E-score.
1. CTTACGAC
2. GGAGAAGA
3. CCTTCTCG
4. CTCATTAA
5. CCTACTAC
6. CACATTGC
7. ACTACTAC
8. CCGATCAG

0.0511
-0.148
-0.134
0.0548
-0.17
0.0928
0.0925
-0.00295

For each listed entry, give its PBM E-score.
1. ACGAGGCT
2. ATCATTAA
3. GCTATATA
4. AATAACAC
5. GTTATTGA
6. ACTATATA

0.117
0.207
0.101
0.288
0.117
0.328

###

# STUDY SYSTEM: Yap3 (UniProt P38749)
# Sequence: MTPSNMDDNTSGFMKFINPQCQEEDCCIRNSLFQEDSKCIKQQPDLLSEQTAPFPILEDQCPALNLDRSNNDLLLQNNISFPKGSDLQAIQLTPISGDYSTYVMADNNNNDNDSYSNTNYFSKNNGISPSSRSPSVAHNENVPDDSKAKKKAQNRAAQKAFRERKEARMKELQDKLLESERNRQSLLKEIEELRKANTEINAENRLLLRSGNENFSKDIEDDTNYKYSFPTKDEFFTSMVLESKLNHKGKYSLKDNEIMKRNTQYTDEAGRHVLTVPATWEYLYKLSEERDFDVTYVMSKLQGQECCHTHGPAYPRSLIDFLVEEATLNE
# EXPERIMENT SUMMARY: PBM E-score (8-mer binding enrichment) (E-score (-0.5 to 0.5)); higher = stronger / more preferred TF binding
# CONDITION INFO: protein concentration: 100 nM; construct: GST-full length
Over roughly 33,000 sequences, “E-score (-0.5 to 0.5)” has its median near -0.0034; the highest 2% begin near 0.25. Many of the other results were omitted from the sample, so the highest values are more common in it than they were.
Task for the reader: assign each of the following sequences its reported PBM E-score.
Answers are plain numbers.

For each listed entry, give its PBM E-score.
1. AACTATAT
2. CATATCAA
3. TATTAAAA
4. AATAGCTA
5. ATTAAATC
6. AATACACA

1: 0.309; 2: 0.275; 3: 0.217; 4: 0.0193; 5: 0.211; 6: 0.131

For each listed entry, give its PBM E-score.
1. CAATTGGC
2. AACTATAC
3. AAATATAG
4. ACGACCTG

0.179
0.0711
0.117
-0.18

Hey, just so you know, these numbers are from the supplement of paper PMC3334620.
